# Measurement setup: in sec-butanol, 288.15 K
Experimental readout: solubility (mole fraction)
Lab note: jot down the number only; don't add units.

Input: Look up solubility (mole fraction) for this compound: COCCOC(=O)C1=C(C)NC(C)=C(C(=O)OC(C)C)C1c1cccc([N+](=O)[O-])c1 (stereo unspecified)
Output: 0.0122

----------
# Measurement setup: in sec-butanol, 293.15 K
Experimental readout: solubility (mole fraction)
Lab note: jot down the number only; don't add units.

Input: Look up solubility (mole fraction) for this molecule: COCCOC(=O)C1=C(C)NC(C)=C(C(=O)OC(C)C)C1c1cccc([N+](=O)[O-])c1 (stereo unspecified)
Output: 0.0134

----------
# Measurement setup: in acetonitrile, 303.15 K
Experimental readout: solubility (mole fraction)
Lab note: jot down the number only; don't add units.

Input: Look up solubility (mole fraction) for this compound: COCCOC(=O)C1=C(C)NC(C)=C(C(=O)OC(C)C)C1c1cccc([N+](=O)[O-])c1 (stereo unspecified)
Output: 0.00365

----------
# Measurement setup: in isobutanol, 303.15 K
Experimental readout: solubility (mole fraction)
Lab note: jot down the number only; don't add units.

Input: Look up solubility (mole fraction) for this compound: COCCOC(=O)C1=C(C)NC(C)=C(C(=O)OC(C)C)C1c1cccc([N+](=O)[O-])c1 (stereo unspecified)
Output: 0.0137

----------
# Measurement setup: in ethyl acetate, 278.15 K
Experimental readout: solubility (mole fraction)
Lab note: jot down the number only; don't add units.

Input: Look up solubility (mole fraction) for this molecule: COCCOC(=O)C1=C(C)NC(C)=C(C(=O)OC(C)C)C1c1cccc([N+](=O)[O-])c1 (stereo unspecified)
Output: 0.00127

----------
# Measurement setup: in sec-butanol, 298.15 K
Experimental readout: solubility (mole fraction)

Input: Look up solubility (mole fraction) for this compound: COCCOC(=O)C1=C(C)NC(C)=C(C(=O)OC(C)C)C1c1cccc([N+](=O)[O-])c1 (stereo unspecified)
Output: 0.0149

----------
# Measurement setup: in isopropanol, 308.15 K
Experimental readout: solubility (mole fraction)

Input: Look up solubility (mole fraction) for this molecule: COCCOC(=O)C1=C(C)NC(C)=C(C(=O)OC(C)C)C1c1cccc([N+](=O)[O-])c1 (stereo unspecified)
Output: 0.0225

----------
# Measurement setup: in n-propanol, 298.15 K
Experimental readout: solubility (mole fraction)
Lab note: jot down the number only; don't add units.

Input: Look up solubility (mole fraction) for this compound: COCCOC(=O)C1=C(C)NC(C)=C(C(=O)OC(C)C)C1c1cccc([N+](=O)[O-])c1 (stereo unspecified)
Output: 0.0173

----------
# Measurement setup: in isobutanol, 288.15 K
Experimental readout: solubility (mole fraction)
Lab note: jot down the number only; don't add units.

Input: Look up solubility (mole fraction) for this compound: COCCOC(=O)C1=C(C)NC(C)=C(C(=O)OC(C)C)C1c1cccc([N+](=O)[O-])c1 (stereo unspecified)
Output: 0.00923

----------
# Measurement setup: in ethyl acetate, 318.15 K
Experimental readout: solubility (mole fraction)

Input: Look up solubility (mole fraction) for this compound: COCCOC(=O)C1=C(C)NC(C)=C(C(=O)OC(C)C)C1c1cccc([N+](=O)[O-])c1 (stereo unspecified)
Output: 0.00364

----------
# Measurement setup: in THF, 288.15 K
Experimental readout: solubility (mole fraction)

Input: Look up solubility (mole fraction) for this molecule: COCCOC(=O)C1=C(C)NC(C)=C(C(=O)OC(C)C)C1c1cccc([N+](=O)[O-])c1 (stereo unspecified)
Output: 0.0181
